We begin with a simple list: items and their reported % Suppression vs. Vehicle.
Target: Mouse TLR7 (Mus musculus, UniProt P58681)
Construct: endogenous in cells; host or cells: female BALB/c mice, in vivo
Sequence (P58681 27-1050): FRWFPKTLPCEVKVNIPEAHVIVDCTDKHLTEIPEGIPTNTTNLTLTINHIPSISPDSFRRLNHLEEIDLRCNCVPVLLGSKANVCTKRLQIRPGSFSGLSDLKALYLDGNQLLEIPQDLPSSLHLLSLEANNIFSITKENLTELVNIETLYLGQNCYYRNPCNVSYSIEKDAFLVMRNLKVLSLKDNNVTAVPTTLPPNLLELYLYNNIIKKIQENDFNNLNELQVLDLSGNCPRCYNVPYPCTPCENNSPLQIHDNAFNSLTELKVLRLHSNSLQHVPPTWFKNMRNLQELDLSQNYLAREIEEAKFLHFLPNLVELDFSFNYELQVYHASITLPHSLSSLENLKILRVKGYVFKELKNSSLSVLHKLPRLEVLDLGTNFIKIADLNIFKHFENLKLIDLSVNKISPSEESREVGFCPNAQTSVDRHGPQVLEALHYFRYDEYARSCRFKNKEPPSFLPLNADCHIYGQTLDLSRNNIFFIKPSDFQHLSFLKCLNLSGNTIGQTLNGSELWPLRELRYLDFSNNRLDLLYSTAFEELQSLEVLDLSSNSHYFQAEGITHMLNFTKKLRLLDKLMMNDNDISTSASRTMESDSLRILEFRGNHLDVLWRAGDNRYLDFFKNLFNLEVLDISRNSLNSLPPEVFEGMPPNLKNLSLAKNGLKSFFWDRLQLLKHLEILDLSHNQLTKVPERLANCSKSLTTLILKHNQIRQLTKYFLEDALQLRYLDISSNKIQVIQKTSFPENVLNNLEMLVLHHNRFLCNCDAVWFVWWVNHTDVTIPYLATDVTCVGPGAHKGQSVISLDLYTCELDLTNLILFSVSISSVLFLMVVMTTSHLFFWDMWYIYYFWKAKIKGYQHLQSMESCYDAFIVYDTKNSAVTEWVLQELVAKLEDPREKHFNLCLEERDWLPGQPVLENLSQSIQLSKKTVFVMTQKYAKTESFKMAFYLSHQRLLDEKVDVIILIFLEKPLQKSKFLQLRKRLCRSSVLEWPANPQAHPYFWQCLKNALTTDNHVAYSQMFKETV
Assay: Short-term in vivo (STIV) assay: plasma IL-6 after s.c. R848
Conditions: time point 6 hr; dose 100 mg/kg oral
Experimental: Figure Legend: Female BALB/c mice were dosed by oral gavage with Vehicle alone (0.5% aqueous methyl-cellulose) or compound ER-892887 formulated in Vehicle at 100 mg/kg or 300 mg/kg. At 13 or 24 hours following oral dosing, mice were injected subcutaneously with 15 ug R848 to stimulate TLR7. Blood plasma was collected by cardiac puncture, and the IL-6 level at 1.5 hours after TLR7 stimulation was then assessed by standard ELISA procedure. […] Statistical significance was determined by Mann-Whitney test. […]

These solved cases illustrate the format of a correct answer.
// lookup % Suppression vs. Vehicle for COc1ccc([C@@H]2C[C@H](C(F)(F)F)n3nc(-c4ccc(C(=O)N5CCNCC5)cc4)cc3N2)cc1OC [ER-892887]
100%

Try this compound too: COc1ccc([C@@H]2C[C@H](C(F)(F)F)n3nc(C4CCNCC4)cc3N2)cc1OC [ER-885681]
81%

Try this compound too: Cc1nn(C)cc1[C@@H]1C[C@H](C(F)(F)F)n2nc(-c3ccc(NC(N)=O)cc3)cc2N1 [ER-894595]
57%

// next entry
// lookup % Suppression vs. Vehicle for COc1ccc([C@@H]2C[C@H](C(F)F)n3nc(-c4ccc(C(=O)N5CCNCC5)cc4)cc3N2)cc1OC [ER-895302]
99%
